study target: 3T3-L1 adipocytes (Mus musculus, UniProt P16092+Q99N32)
Sequence (Q99N32 whole entry): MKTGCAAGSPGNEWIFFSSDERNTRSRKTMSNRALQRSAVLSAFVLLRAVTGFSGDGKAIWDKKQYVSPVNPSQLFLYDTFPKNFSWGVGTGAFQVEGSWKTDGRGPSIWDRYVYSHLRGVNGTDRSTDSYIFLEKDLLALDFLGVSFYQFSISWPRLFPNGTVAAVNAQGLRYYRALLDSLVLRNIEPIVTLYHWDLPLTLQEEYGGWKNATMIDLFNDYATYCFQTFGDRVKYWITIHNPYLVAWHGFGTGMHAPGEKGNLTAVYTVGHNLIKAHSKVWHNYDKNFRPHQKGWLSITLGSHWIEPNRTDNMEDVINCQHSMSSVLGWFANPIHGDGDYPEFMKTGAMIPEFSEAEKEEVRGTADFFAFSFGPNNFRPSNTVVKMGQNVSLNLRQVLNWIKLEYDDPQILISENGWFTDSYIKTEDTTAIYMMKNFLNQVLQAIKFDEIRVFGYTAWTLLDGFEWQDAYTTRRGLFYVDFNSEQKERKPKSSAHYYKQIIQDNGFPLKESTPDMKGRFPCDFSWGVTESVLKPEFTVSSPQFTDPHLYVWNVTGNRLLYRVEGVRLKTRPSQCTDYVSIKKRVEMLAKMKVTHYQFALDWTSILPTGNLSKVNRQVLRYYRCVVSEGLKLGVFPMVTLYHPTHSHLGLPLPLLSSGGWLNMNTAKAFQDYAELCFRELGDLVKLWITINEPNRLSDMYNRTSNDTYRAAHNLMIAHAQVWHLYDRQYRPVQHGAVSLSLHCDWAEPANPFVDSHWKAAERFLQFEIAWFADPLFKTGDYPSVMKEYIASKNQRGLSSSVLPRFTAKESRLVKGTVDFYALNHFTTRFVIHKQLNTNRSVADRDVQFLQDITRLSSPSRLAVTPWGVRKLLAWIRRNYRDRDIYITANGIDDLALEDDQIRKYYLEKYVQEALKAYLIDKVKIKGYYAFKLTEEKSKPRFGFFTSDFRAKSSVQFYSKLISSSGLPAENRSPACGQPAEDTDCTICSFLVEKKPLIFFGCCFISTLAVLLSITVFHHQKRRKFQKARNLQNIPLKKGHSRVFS
Sequence (P16092 22-822): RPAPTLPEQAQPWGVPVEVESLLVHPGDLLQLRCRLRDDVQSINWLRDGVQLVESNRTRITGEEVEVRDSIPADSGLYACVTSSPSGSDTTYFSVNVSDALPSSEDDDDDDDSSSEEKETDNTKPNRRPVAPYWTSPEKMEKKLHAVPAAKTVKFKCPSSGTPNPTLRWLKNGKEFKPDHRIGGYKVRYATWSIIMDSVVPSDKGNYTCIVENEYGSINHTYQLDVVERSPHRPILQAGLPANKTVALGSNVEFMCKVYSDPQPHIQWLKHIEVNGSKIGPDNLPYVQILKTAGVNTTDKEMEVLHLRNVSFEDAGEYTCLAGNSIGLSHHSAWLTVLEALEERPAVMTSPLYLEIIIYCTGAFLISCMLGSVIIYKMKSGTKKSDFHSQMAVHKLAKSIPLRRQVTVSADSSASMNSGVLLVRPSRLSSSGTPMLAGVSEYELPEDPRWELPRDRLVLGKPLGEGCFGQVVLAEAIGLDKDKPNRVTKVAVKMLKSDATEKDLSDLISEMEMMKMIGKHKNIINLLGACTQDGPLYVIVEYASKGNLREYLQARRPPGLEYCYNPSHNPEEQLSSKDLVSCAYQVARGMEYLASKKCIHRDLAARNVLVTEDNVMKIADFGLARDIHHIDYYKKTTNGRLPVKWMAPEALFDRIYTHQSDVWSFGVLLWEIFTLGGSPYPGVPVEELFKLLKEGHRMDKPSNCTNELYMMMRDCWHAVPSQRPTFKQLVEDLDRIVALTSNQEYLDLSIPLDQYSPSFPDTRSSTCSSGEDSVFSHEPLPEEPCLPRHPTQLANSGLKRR
run description: Glucose uptake in 3T3-L1 adipocytes
Assay type: cell-based
run parameters: stimulated 20 hours, 3H-deoxy-glucose
quantity name: Glucose uptake Emax (%)
Kindly provide the numeric value in % only, without the unit symbol.

S{Beta-180}-[2-[2-[[2-[2-[2-[[2-[2-[2-[[(4S)-4-carboxy-4-(15-carboxypentadecanoyl-amino)butanoyl]amino]ethoxy]ethoxy]acetyl]amino]ethoxy]ethoxy]acetyl]amino]-ethylamino]-2-oxoethyl]-Ala[Gln121,Leu168, … (protein) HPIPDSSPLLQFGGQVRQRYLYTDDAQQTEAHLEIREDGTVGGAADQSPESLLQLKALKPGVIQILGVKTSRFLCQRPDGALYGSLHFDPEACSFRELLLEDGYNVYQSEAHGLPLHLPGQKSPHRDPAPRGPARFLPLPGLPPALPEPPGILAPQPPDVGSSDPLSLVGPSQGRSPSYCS | 98
S{Beta-181}-2-aminoethylsulfanyl-Ala[Gln121, Leu168, Cys181]FGF21 (protein, N-terminal Ala; cysteamine disulfide on Cys181) AHPIPDSSPLLQFGGQVRQRYLYTDDAQQTEAHLEIREDGTVGGAADQSPESLLQLKALKPGVIQILGVKTSRFLCQRPDGALYGSLHFDPEACSFRELLLEDGYNVYQSEAHGLPLHLPGQKSPHRDPAPRGPARFLPLPGLPPALPEPPGILAPQPPDVGSSDPLSLVGPSQGRSPSYAC | 74

Okay, now this molecule:
Ask: Quick check: Glucose uptake Emax of Ala[Gln121, Leu168]FGF21 (protein, N-terminal Ala) AHPIPDSSPLLQFGGQVRQRYLYTDDAQQTEAHLEIREDGTVGGAADQSPESLLQLKALKPGVIQILGVKTSRFLCQRPDGALYGSLHFDPEACSFRELLLEDGYNVYQSEAHGLPLHLPGQKSPHRDPAPRGPARFLPLPGLPPALPEPPGILAPQPPDVGSSDPLSLVGPSQGRSPSYAS ?
Reply: 85
